Tested on: SN12C renal
Experiment: NCI tumour cell line growth inhibition, 48 h
recorded.endpoint: TGI (µM)
Report only the number, with the unit µM understood.

q: // fetch SN12C renal TGI for CCCCc1n(Cc2ccc3ccccc3n2)cc[n+]1Cc1ccc2ccccc2c1
a: 2.21

q: Notebook entry, SN12C renal assay: TGI of CN(C)c1ccc(/C=C2\C[C@H]3[C@@H]4CC=C5C[C@@H](O)CC[C@]5(C)[C@H]4CC[C@]3(C)[C@H]2O)cc1 = ?
a: 40

----------
Tested on: 786-0 renal
Experiment: NCI tumour cell line growth inhibition, 48 h
Peptide text beside a SMILES is read from it. * marks the point of attachment. Cbz = O=C(OCc1ccccc1)*
recorded.endpoint: TGI

q: Requested read-out: TGI. Entry: NC(=S)N/N=C1/C(=O)N(c2ccccc2)C(=O)C1C(=O)Nc1ccccc1 (configuration not stated)
a: > 100 µM

q: Item under review: CCOC(=O)/C=C/C1=C(Br)[C@@]2(C)CC[C@@H]3c4ccc(O)cc4CC[C@H]3[C@@H]2C1 . Reported TGI?
a: 25.4 µM

q: Entry C=CC(=O)N1CCC(CNc2ncnc(N)c2-c2ccc(Oc3ccccc3)cc2)CC1 has what TGI?
a: 92.9 µM

q: Which TGI value is on record for CN(C(=O)C12C3(C(=O)O)C4C5(C(=O)O)C3C1(C(=O)O)C5C42C(=O)O)C(C)(C)C (configuration not stated) ?
a: > 100 µM

q: Look up TGI: Clc1ccc(C2=Cc3nc2c(-c2ccccc2)c2ccc([nH]2)c(-c2ccccc2)c2nc(c(-c4ccccc4)c4ccc([nH]4)c3-c3ccccc3)C=C2)cc1
a: > 62.5 µM

q: What value of TGI has been reported for the following compound? COc1ccc(C#CC2=C(Br)C(=O)OC2)cc1
a: > 50 µM

q: Requested read-out: TGI. Entry: Oc1cc(F)cc2cccnc12
a: > 100 µM

q: Value lookup for TGI; key = COc1cc(S(=O)(=O)Nc2ccc(-c3csc(/N=C\c4cccc(Oc5ccccc5)c4)n3)cc2)ccc1Cl
a: > 100 µM

q: Request the reported TGI associated with CCOC(=O)CCC(NC(=O)CNC(=O)CNC(=O)C(CCC(=O)OCC)NC(=O)C(CCC(=O)OCC)NC(=O)C(CCC(=O)OCC)NC(=O)OCc1ccccc1)C(=O)NC(CCC(=O)OCC)C(=O)NC(CCC(=O)OCC)C(=O)OCC (configuration not stated) (Cbz-E(OEt)E(OEt)E(OEt)GGE(OEt)E(OEt)E(OEt)-OEt; configuration not given here)
a: > 75 µM

q: So what does the record say about TGI for O=C(c1nc2ccc(Cl)cc2[nH]c1=O)C(O)c1ccco1 (configuration not stated) ?
a: > 100 µM

q: Can you share its TGI? I mean this compound: CC(C)(C)CC(C)(C)c1cc2c(O)c(c1)Cc1cc(C(C)(C)CC(C)(C)C)cc(c1O)Cc1cc(C(C)(C)CC(C)(C)C)cc(c1O)Cc1cc(C(C)(C)CC(C)(C)C)cc(c1O)Cc1cc(C(C)(C)CC(C)(C)C)cc(c1O)Cc1cc(C(C)(C)CC(C)(C)C)cc(c1O)Cc1cc(C(C)(C)CC(C)(C)C)cc(c1O)Cc1cc(C(C)(C)CC(C)(C)C)cc(c1O)C2
a: > 100 µM

q: Given the entry CCC1=NC(N/N=C/c2ccco2)=N/C1=C\c1ccco1 , report its measured TGI.
a: > 100 µM

q: Tell me the measured TGI of C[C@@]12[Se]c3ccccc3[C@]1(C)[Se]c1ccccc12 , please.
a: > 100 µM

q: TGI lookup needed for CC/C(=N/O)C(C)C(=O)CCC(=O)Nc1ccc(Cl)cc1 (configuration not stated) , thanks.
a: > 100 µM

q: May I ask what TGI has been recorded for N#CC(C#N)[C@@H]1CCC=C(Sc2ccccc2)[C@H]1Sc1ccccc1 ?
a: 5.64 µM

q: Value lookup for TGI; key = Cc1cc(=O)[nH]c(S(=O)(=O)NC(=O)Nc2cccc(Cl)c2)n1
a: > 100 µM

q: Any idea what its TGI is? The compound is O=C(/C=C/c1ccco1)N1CCN(Cc2ccccc2)CC1
a: > 100 µM

----------
Task for the reader: assign each of the following molecules its reported TGI.
Tested on: A549 NSCLC
Test: NCI tumour cell line growth inhibition, 48 h

q: Which TGI value belongs to CC(NC(=O)c1ccc(OP(=O)(OCc2ccc([N+](=O)[O-])o2)N(C)CCCCCl)cc1)c1ccc(OCC2CCCCC2)c(C(N)=O)c1 (centres undefined) ?
a: > 21.4 µM

q: What value of TGI has been recorded for this entry: O=C1c2ccccc2C(=O)c2c1sc1nc3ccccc3n21
a: 25.1 µM

q: Please report the recorded TGI for CC1(C)OC2C(O1)[C@H]1OC(C(Cl)(Cl)Cl)=N[C@H]1C(I)[C@H]2N1C(=O)c2ccccc2C1=O (some centres undefined) .
a: 97.5 µM

q: Suppose we examine the molecule NC(=S)N/N=C(/CCN1CCCC1)CC(C1=C(O)C2=CCCCC2OC1=O)c1ccccc1 (centres undefined) ; what TGI value has been reported?
a: > 100 µM

q: What value of TGI has been reported for the following molecule? CCC1C[N+]2=C(c3cc(OC)c(OC)cc3CC2)c2c1cc1n2CCc2cc(OC)c(OC)cc2-1 (centres undefined)
a: > 100 µM

q: For the molecule CCCCCCCCCCCCCCCCCCOC(COP(=O)(O)OCC1OC(n2cc(F)c(=O)[nH]c2=O)CC1O)COP(=O)(O)OCC1OC(n2ccc(N)nc2=O)C(O)C1O (centres undefined) , what TGI is on record?
a: > 63.6 µM

q: Any idea what its TGI is? The molecule is NC(=S)NN=C1Cc2ccccc2C1
a: > 100 µM

q: // returns reported TGI for input C=C(C)C1Cc2cc(C(C)=O)ccc2O1 (centres undefined)
a: > 100 µM

q: Field request: TGI | item: CC(C)(C)c1cc(C#N)c2c(c1)C(=O)OC2(c1ccccc1)c1ccccc1C#N (centres undefined)
a: > 100 µM

----------
Task for the reader: assign each of the following compounds its reported TGI.
Tested on: OVCAR-4 ovarian
Experiment: NCI tumour cell line growth inhibition, 48 h

q: What measured TGI goes with CC(C)C(=O)/C=C/c1ccc(Cl)cc1Cl ?
a: 20.9 µM

q: Given the compound C#CCn1c2c(c3ccccc3c1=O)C(=O)c1ccccc1-2 , what is its reported TGI?
a: 33.1 µM

q: What value of TGI has been reported for the following compound? CCCC(=O)Nc1cc(/C=C/C(=O)N2CC(CCl)c3c2cc(OC(C)=O)c2[nH]cc(C)c32)n(C)c1 (stereo unspecified)
a: 0.0213 µM

q: I would be grateful if you could share the reported TGI for OC1CCSc2ccccc21 (stereo unspecified) .
a: > 100 µM

q: I have this compound here, COc1ccc(OC)c(-c2nc3sc(C)cn3c2/C=C2\C(=O)N(C)c3ccccc32)c1 , and I need its recorded TGI.
a: > 100 µM

q: Please report the recorded TGI for CCOC(=O)/C(=C/c1ccccc1)N(CC)CC .
a: > 100 µM

q: Look up TGI: NC(=S)NN=C1Cc2ccccc2C1
a: > 100 µM

q: TGI for COc1ccc2c(ccc3oc([N+](=O)[O-])cc32)c1 ?
a: 2.01 µM

q: Fill in: TGI of N#Cc1n[nH]n(-c2ccccc2)c1=O is ___
a: > 100 µM

q: Field request: TGI | item: Fc1c(F)c(F)c(CSc2nc3ccccc3[nH]2)c(F)c1F
a: > 100 µM

q: Given CN(C(=O)C12C3(C(=O)O)C4C5(C(=O)O)C3C1(C(=O)O)C5C42C(=O)O)C(C)(C)C (stereo unspecified) , state its recorded TGI.
a: > 100 µM

----------
System: SW-620 colon
Test: NCI tumour cell line growth inhibition, 48 h
Where a SMILES comes first, the peptide text is derived from it. [ ]: non-standard residue; d: D form. The star is where a group is joined. Hyp = O=C(O)[CH]1C[CH](O)CN1; Cbz = O=C(OCc1ccccc1)*
recorded.endpoint: TGI

q: Endpoint output: TGI of COc1cc2cc[n+](C)c(Cc3ccc(Oc4cc(Cc5c6cc(OC)c(OC)cc6cc[n+]5C)ccc4OC)cc3)c2cc1OC . Value?
a: > 100 µM

q: Data request, read-out TGI, for N#CC(C(=S)Nc1ccccc1)=C1Nc2ccccc2N1
a: > 10 µM

q: Return reported TGI; argument: [N-]=[N+]=Nc1nnc(CCCCc2nnc(N=[N+]=[N-])o2)o1
a: > 100 µM

q: Which value of TGI has been reported for O=C(CC(=O)c1cccc2ccccc12)C(=O)Nc1nccs1 in the records?
a: > 100 µM

q: Quick one: TGI of CC(=S)NC=C(C(N)=O)C(N)=O ?
a: > 100 µM

q: Data request, read-out TGI, for N#Cc1n[nH]n(-c2ccccc2)c1=O
a: > 100 µM

q: # get_value(readout='TGI', item= NC(=O)CNC(=O)C1CC(O)CN1C(=O)C1CCCN1C(=O)OCc1ccccc1 (stereo not drawn) (Cbz-Pro-[Hyp]-Gly-NH2; configuration not given here) )
a: > 100 µM

q: # get_value(readout='TGI', item= CN(C)c1ccc(C2=C([O-])c3cc(-[n+]4ccccc4)ccc3C2=O)cc1 )
a: > 100 µM

q: Quick one: TGI of COc1cc(/C=C2\CC3C4CC[C@H]5C[C@@H](O)CC[C@]5(C)C4CC[C@]3(C)\C2=N\O)cc(OC)c1OC (stereo partly specified) ?
a: > 100 µM

q: Given the compound O=C(NN1CCCCC1)c1cc2cc(CCl)ccc2oc1=O , what is its reported TGI?
a: 60.7 µM

q: Name the recorded TGI for COc1ccc(OC)c(-c2nc3sc(C)cn3c2/C=C2\C(=O)N(C)c3ccccc32)c1 .
a: > 100 µM

q: Recorded TGI for O=CCC(O)C(O)C(O)CO (stereo unspecified) , please?
a: > 100 µM

q: Consider the compound shown here: Cc1cc(=O)[nH]c(Sc2ccc([N+](=O)[O-])cc2[N+](=O)[O-])n1 What is its recorded TGI?
a: 18.1 µM

q: What TGI value was documented for this compound, COc1ccc(C2S/C(=C\c3ccc([N+](=O)[O-])cc3)C(=O)N2NC(=O)Cc2ccccc2)cc1 (stereo unspecified) ?
a: > 100 µM

q: I am curious: what TGI value has been reported for CC(=O)NC(CCCCN(Cc1ccccc1)C(=O)N(C)N=O)C(=O)NCc1ccccc1 (stereo unspecified) ?
a: > 100 µM

q: Entry under review: COc1ccc2cn3c4ccc(O)cc4[nH]c(=O)c3c2c1 . Reported TGI?
a: 13.7 µM

q: Any idea what TGI was measured for C#C[C@]1(O)[C@@H](CO)O[C@@H](n2ccc(=O)[nH]c2=O)[C@@H]1O ?
a: > 100 µM

q: // TGI lookup, key: Cc1cc(=O)[nH]c(S(=O)(=O)NC(=O)Nc2cccc(Cl)c2)n1
a: > 100 µM

q: Given the compound O=C1c2ccccc2-c2c1c1ccc3ccccc3c1n2-c1ccccc1 , what is its reported TGI?
a: > 100 µM

q: Which TGI is reported for this compound? CC(C)C(=O)CC(c1ccc(Br)cc1)N1N=C(C(C)C)CC1c1ccc(Br)cc1 (stereo unspecified)
a: > 100 µM

q: What measured TGI goes with CN(C)C(=S)/N=C(\N)N(C)C ?
a: > 100 µM
